assay: Pharmacokinetic experiment, single intragastric administration, plasma by HPLC-UV; format: in vivo, SD rats; details: SD (Sprague-Dawley), rat, plasma, po, 200 mg/kg, Group C: CUR 200 mg kg^−1 and ILE 150 mg kg^−1 oral; read-out: Tmax of DHC (converted)
reportedEndpoint: Tmax
Enter the number, and then the unit.

Task item: Can you look up the measured Tmax of COc1cc(/C=C/C(=O)CC(=O)CCc2ccc(O)c(OC)c2)ccc1O [DHC, Dihydrocurcumin] for me?
Reply: 18 min

###

test: Pharmacokinetic experiment, single intragastric administration, plasma by HPLC-UV; type: in vivo, SD rats; conditions: SD, rat, plasma, po, plasma, Group B (CUR 200 mg kg^−1 and PIP 150 mg kg^−1 oral), 270 min; read-out: Mean concentrations ±sd, DHC
reportedEndpoint: concentration at 270 min (ng/mL)
Could you give me the number in ng/mL? Just the number is fine.

Task item: Consider the molecule COc1cc(/C=C/C(=O)CC(=O)CCc2ccc(O)c(OC)c2)ccc1O [DHC, Dihydrocurcumin] and give its measured concentration at 270 min.
Reply: 250

###

assay: Pharmacokinetic experiment, single intragastric administration, plasma by HPLC-UV; type: in vivo, SD rats; conditions: SD (Sprague-Dawley), rat, plasma, po, plasma, Group B (CUR 200 mg kg^−1 and PIP 150 mg kg^−1 oral), 60 min; read-out: Mean concentrations ±sd, DHC
reportedEndpoint: concentration at 60 min (ng/mL)
# output: bare number, implied unit ng/mL

Task item: Suppose we examine the compound COc1cc(/C=C/C(=O)CC(=O)CCc2ccc(O)c(OC)c2)ccc1O [DHC, Dihydrocurcumin] ; what concentration at 60 min value has been reported?
Reply: 2600

###

Test: Pharmacokinetic experiment, single intragastric administration, plasma by HPLC-UV
Format: in vivo, SD rats
Conditions: SD, rat, plasma, po, plasma, Group C (CUR 200 mg kg^−1 and ILE 150 mg kg^−1 oral), 330 min; read-out: Mean concentrations ±sd, DHC
Method: An Agilent 1200 HPLC system was used. […] The flow rate was set at 1 ml min^−1 and detection wavelength was 420, 340 and 323 nm. Injection volume was 5 μL. The column temperature was set at 30°C. Plasma or brain homogenate of SD rats was taken 50 μL, internal standard solution of 50 μL and protein precipitator of 150 μL were added. After eddy oscillation for 3 min, supernatant was separated by centrifugation. […]
reportedEndpoint: concentration at 330 min (ng/mL)
Express it in ng/mL; write the number only.

Task item: // lookup concentration at 330 min for COc1cc(/C=C/C(=O)CC(=O)CCc2ccc(O)c(OC)c2)ccc1O [DHC, Dihydrocurcumin]
Reply: 600

###

experiment: Pharmacokinetic experiment, single intragastric administration, plasma by HPLC-UV; type: in vivo, SD rats; conditions: SD (Sprague-Dawley), rat, plasma, po, plasma, Group A (CUR 200 mg kg^−1 oral alone), 210 min; read-out: Mean concentrations ±sd, DHC
reportedEndpoint: concentration at 210 min (µg/mL)
Kindly answer with a numeric value in µg/mL, unit omitted.

Task item: # get_value(readout='concentration at 210 min', item= COc1cc(/C=C/C(=O)CC(=O)CCc2ccc(O)c(OC)c2)ccc1O [DHC, Dihydrocurcumin] )
Reply: 1.1

###

test: Pharmacokinetic experiment, single intragastric administration, plasma by HPLC-UV; assay type: in vivo, SD rats; settings: SD (Sprague-Dawley), rat, plasma, po, Mean concentrations ±sd, ILE, plasma, Group C (CUR 200 mg kg^−1 and ILE 150 mg kg^−1 oral), 210 min
reportedEndpoint: concentration at 210 min (ng/mL)
// units = ng/mL; emit number, no label

Task item: # concentration at 210 min lookup, item O=C(/C=C/c1ccc2c(c1)OCO2)N1CCCCC1 [ILE, Ilepcimide, reference compound]
Reply: 3400
